# Test system: SK-OV-3
# Assay explanation: Growth inhibition of human SK-OV-3 cells measured after 48 hrs by SRB assay
# Format: functional
Entries and their log10 GI50
Values reflect log10 of reported GI50 (nM).

Past entries and their recorded results:
Query string: Identify the reported log10 GI50 for the following entry. C[C@]12CC[C@H](O)C=C1CC[C@@H]1[C@@H]2[C@@H](O)C[C@]2(C)[C@@H](c3ccc(=O)oc3)CC[C@]12O
Result string: 3.43

Query string: Give the measured log10 GI50 for C[C@]12CC[C@H]3[C@@H](CC[C@H]4C[C@@H](O)CC[C@@]43C=O)[C@@]1(O)CC[C@@H]2c1ccc(=O)oc1
Result string: 3.75

Query string: Return log10 GI50 for the following compound: CC(=O)OC[C@H]1O[C@@H](O[C@@H]2C=C3CC[C@@H]4[C@H]([C@@H](O)C[C@]5(C)[C@@H](c6ccc(=O)oc6)CC[C@]45O)[C@@]3(C)CC2)[C@H](OC(C)=O)[C@@H](OC(C)=O)[C@@H]1OC(C)=O
Result string: 2.51

Query string: Tell me log10 GI50 reported for CCO[C@@H]1C=C2CC[C@@H]3[C@H]([C@@H](O)C[C@]4(C)[C@@H](c5ccc(=O)oc5)CC[C@]34O)[C@@]2(C)CC1
Result string: 2.53

Query string: Specify reported log10 GI50 for the compound shown: C[C@]12CC[C@@H](O)C=C1CC[C@@H]1[C@@H]2[C@@H](O)C[C@]2(C)[C@@H](c3ccc(=O)oc3)CC[C@]12O
Result string: 3.63

Query string: Give the value of log10 GI50 reported for the following: C[C@]12CC[C@H](O[C@@H]3O[C@H](CO)[C@@H](O)[C@H](O)[C@H]3O)C=C1CC[C@@H]1[C@@H]2[C@@H](O)C[C@]2(C)[C@@H](c3ccc(=O)oc3)CC[C@]12O
Result string: 1.87

Query string: Please look at this compound and report its log10 GI50: CCO[C@H]1C=C2CC[C@@H]3[C@H]([C@@H](O)C[C@]4(C)[C@@H](c5ccc(=O)oc5)CC[C@]34O)[C@@]2(C)CC1
Result string: 3.28

Moving on to the next compound.
Query string: Read off the recorded log10 GI50 for C[C@]12C[C@H](O)[C@H]3[C@@H](CCC4=C[C@@H](O[C@@H]5O[C@H](CO)[C@@H](O)[C@H](O)[C@H]5O)CC[C@@]43CO)[C@@]1(O)CC[C@@H]2c1ccc(=O)oc1
Result string: 1.71

====

# Test system: TK-10
# Assay explanation: Growth inhibition of human TK-10 cells measured after 48 hrs by SRB assay
# Assay type: functional
Measured parameter: GI50 (µM)
The answer is to be given in µM; state only the numeric part.

Query string: Tell me measured GI50 for CCO[C@@H]1C=C2CC[C@@H]3[C@H]([C@@H](O)C[C@]4(C)[C@@H](c5ccc(=O)oc5)CC[C@]34O)[C@@]2(C)CC1 please.
Result string: 0.094

Query string: Check the records and state GI50 for C[C@]12CC[C@@H](O)C=C1CC[C@@H]1[C@@H]2[C@@H](O)C[C@]2(C)[C@@H](c3ccc(=O)oc3)CC[C@]12O
Result string: 2.98

Consider the additional molecule presented here.
Query string: Please give the documented GI50 of CCO[C@H]1C=C2CC[C@@H]3[C@H]([C@@H](O)C[C@]4(C)[C@@H](c5ccc(=O)oc5)CC[C@]34O)[C@@]2(C)CC1
Result string: 1.3

The reported measurements were obtained from ChEMBL document CHEMBL4837183.
